The measurements presented in this section are drawn from patent US11066401B2.

List of pIC50 values.
# Experimental Target: UniProt P11309
# Sequence (P11309 whole entry): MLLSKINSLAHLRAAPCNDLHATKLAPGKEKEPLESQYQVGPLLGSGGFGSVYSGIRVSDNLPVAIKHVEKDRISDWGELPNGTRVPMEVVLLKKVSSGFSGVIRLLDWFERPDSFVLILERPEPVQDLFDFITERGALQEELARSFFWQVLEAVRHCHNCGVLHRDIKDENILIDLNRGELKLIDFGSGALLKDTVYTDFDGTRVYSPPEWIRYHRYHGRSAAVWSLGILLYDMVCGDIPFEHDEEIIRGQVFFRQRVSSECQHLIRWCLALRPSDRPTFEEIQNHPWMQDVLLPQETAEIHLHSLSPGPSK
pIC50: −log10 of the molar value.
Recorded Endpoint: pIC50

Compound	Recorded Endpoint	Reported Measurement
Nc1sc(-c2c(F)cccc2F)nc1C(=O)Nc1cncnc1OCC1CCNCC1 [EXAMPLE 2]	pIC50	8.64
Nc1sc(-c2c(F)cccc2F)nc1C(=O)Nc1cncnc1OCC1CCNCC1 [EXAMPLE 1]	pIC50	8.00

====

# Test: Test for stability: related substances under high temperature and illumination (HPLC)
# Type: physicochemical
# Condition Notes: acetonitrile-water (1:1) solution, day 0, area normalization

Molecule	Value Unit	Related substances Day 0
Nc1sc(-c2c(F)cccc2F)nc1C(=O)Nc1cncnc1OCC1CCNCC1.O=C(O)c1ccccc1	%	0.56
Nc1sc(-c2c(F)cccc2F)nc1C(=O)Nc1cncnc1OCC1CCNCC1 [EXAMPLE 1]	%	0.45
CC(O)C(=O)O.Nc1sc(-c2c(F)cccc2F)nc1C(=O)Nc1cncnc1OCC1CCNCC1	%	0.54
Nc1sc(-c2c(F)cccc2F)nc1C(=O)Nc1cncnc1OCC1CCNCC1.O=S(=O)(O)O	%	0.52
Nc1sc(-c2c(F)cccc2F)nc1C(=O)Nc1cncnc1OCC1CCNCC1.O=C(O)/C=C/C(=O)O	%	0.56
Cc1ccc(S(=O)(=O)O)cc1.Nc1sc(-c2c(F)cccc2F)nc1C(=O)Nc1cncnc1OCC1CCNCC1	%	0.65
CC(=O)O.Nc1sc(-c2c(F)cccc2F)nc1C(=O)Nc1cncnc1OCC1CCNCC1	%	0.62
Br.Nc1sc(-c2c(F)cccc2F)nc1C(=O)Nc1cncnc1OCC1CCNCC1	%	0.52
